Tgt: proMMP13(1-268) (SEQ ID NO:7) (Homo sapiens)
Construct: 6xHis (C)
Test Protocol: ThermoFluor binding assay with proMMP13(1-268)
Method: The ThermoFluor® (TF) assay is a 384-well plate-based binding assay that measures thermal stability of proteins (Biomol Screen 2001, 6, 429-40; Biochemistry 2005, 44, 5258-66). The experiments were carried out using instruments available from Johnson & Johnson Pharmaceutical Research & Development, LLC. TF dye used in all experiments was […] (1,8-ANS) (Invitrogen: A-47). […]
Reported Property: pKd
Scale: pKd equals -log10([C]), with [C] in mol/L.

[ask] Look up pKd with proMMP13(1-268) (SEQ ID NO:7) (Homo sapiens) for this compound: COc1ccc(C(N)=O)cc1Nc1nc2c(ccc3c2ncn3C)s1
[reply] 5.82

[ask] API: value(readout= pKd, system= proMMP13(1-268) (SEQ ID NO:7) (Homo sapiens), query= CC(C)Oc1ccc(C(N)=O)cc1Nc1nc2c(ccc3nc(C(=O)N4CCN(C)CC4)[nH]c32)s1 )
[reply] 5.21

[ask] API: value(readout=pKd, system=proMMP13(1-268) (SEQ ID NO:7) (Homo sapiens)) for record COc1ccc(Cl)cc1Nc1nc2c(ccc3c2ncn3C)s1
[reply] 5.80

[ask] Form field: pKd recorded for COc1ccccc1Nc1nc2c(ccc3nc(N)sc32)s1 with proMMP13(1-268) (SEQ ID NO:7) (Homo sapiens) (enter value)
[reply] 5.06

[ask] Hello, I am looking for reported pKd with proMMP13(1-268) (SEQ ID NO:7) (Homo sapiens) for COc1cc(C(N)=O)ccc1Nc1nc2c(ccc3c2ncn3C)s1 . Could you help?
[reply] 5.08
